test system: A498; test: NCI-60 growth inhibition: A498 (Renal Cancer); type: cell-based, human; conditions: Homo sapiens
measured_endpoint: GI50

* C=C1C(=O)O[C@H]2[C@H]1CC/C(COC(=O)NCc1ccc(Cn3c(=O)sn(CCI)c3=O)cc1)=C\CC[C@@]1(C)O[C@@H]21 | 4.44 µM
* C=C1C(=O)O[C@H]2[C@H]1CC/C(COC(=O)NCc1ccc(Cn3c(=O)sn(-c4ccccc4)c3=O)cc1)=C\CC[C@@]1(C)O[C@@H]21 | 3.91 µM
* C=C1C(=O)O[C@H]2[C@H]1CC/C(COC(=O)NCc1ccc(Cn3c(=O)sn(CCCI)c3=O)cc1)=C\CC[C@@]1(C)O[C@@H]21 | 4.85 µM
* C=C1C(=O)O[C@H]2[C@H]1CC/C(COC(=O)NCc1ccc(Cn3c(=O)sn(CCCC)c3=O)cc1)=C\CC[C@@]1(C)O[C@@H]21 | 3.28 µM
* C=C1C(=O)O[C@H]2[C@H]1CC/C(COC(=O)NCc1ccc(Cn3c(=O)sn(-c4ccc(OC)cc4)c3=O)cc1)=C\CC[C@@]1(C)O[C@@H]21 | 5.65 µM

###

tested on: MV4-11 cell line (myelomonocytic leukemia); conditions: MV4-11 cells, 24 h, Alamar blue; Ibuprofen-TDZD analogs (Table 3)
Response field label: string, one of satisfied (LD50, Alamar blue (μM) 24 h strictly below 7 µM) or not satisfied.

* CCCCn1sc(=O)n(Cc2ccc(CNC(=O)C(C)c3ccc(CC(C)C)cc3)cc2)c1=O (centres unmarked) | not satisfied
* COc1ccc(-n2sc(=O)n(Cc3ccc(CNC(=O)C(C)c4ccc(CC(C)C)cc4)cc3)c2=O)cc1 (centres unmarked) | not satisfied
* CC(C)Cc1ccc(C(C)C(=O)NCc2ccc(Cn3c(=O)sn(-c4ccccc4)c3=O)cc2)cc1 (centres unmarked) | satisfied
* CC(C)Cc1ccc(C(C)C(=O)NCc2ccc(Cn3c(=O)sn(CCCCl)c3=O)cc2)cc1 (centres unmarked) | satisfied
* Cn1sc(=O)n(Cc2ccccc2)c1=O [TDZD-8, reference compound] | satisfied
* CC(C)Cc1ccc(C(C)C(=O)NCc2ccc(Cn3c(=O)sn(CCCI)c3=O)cc2)cc1 (centres unmarked) | satisfied
* CC(C)Cc1ccc(C(C)C(=O)NCc2ccc(Cn3c(=O)sn(-c4ccc(Cl)cc4)c3=O)cc2)cc1 (centres unmarked) | not satisfied
* CC(C)Cc1ccc(C(C)C(=O)NCc2ccc(Cn3c(=O)sn(CCI)c3=O)cc2)cc1 (centres unmarked) | satisfied
* CCCCCn1sc(=O)n(Cc2ccc(CNC(=O)C(C)c3ccc(CC(C)C)cc3)cc2)c1=O (centres unmarked) | satisfied
* CC(C)Cc1ccc(C(C)C(=O)NCc2ccc(Cn3c(=O)sn(-c4ccc(C#N)cc4)c3=O)cc2)cc1 (centres unmarked) | not satisfied

###

LD50, 7AAD (μM) 24 h values by entry
system: MV4-11 cell line (myelomonocytic leukemia); settings: MV4-11 cells, 24 h, 7AAD; MMB-TDZD analogs (Table 2)
measured_endpoint: LD50, 7AAD (μM) 24 h

* C=C1C(=O)O[C@H]2[C@H]1CC/C(COC(=O)NCc1ccc(Cn3c(=O)sn(CCCCC)c3=O)cc1)=C\CC[C@@]1(C)O[C@@H]21 | 1.3 µM
* C=C1C(=O)O[C@H]2[C@H]1CC/C(COC(=O)NCc1ccc(Cn3c(=O)sn(CCI)c3=O)cc1)=C\CC[C@@]1(C)O[C@@H]21 | 2.37 µM
* C=C1C(=O)O[C@H]2[C@H]1CC/C(COC(=O)NCc1ccc(Cn3c(=O)sn(-c4ccc(Cl)cc4)c3=O)cc1)=C\CC[C@@]1(C)O[C@@H]21 | 0.55 µM
* C=C1C(=O)O[C@H]2[C@H]1CC/C(COC(=O)NCc1ccc(Cn3c(=O)sn(CCCl)c3=O)cc1)=C\CC[C@@]1(C)O[C@@H]21 | 4.42 µM
* Cn1sc(=O)n(Cc2ccccc2)c1=O [TDZD-8, reference compound] | 3.61 µM
* C=C1C(=O)O[C@H]2[C@H]1CC/C(COC(=O)NCc1ccc(Cn3c(=O)sn(CCCI)c3=O)cc1)=C\CC[C@@]1(C)O[C@@H]21 | 0.01 µM
* C=C1C(=O)O[C@H]2[C@H]1CC/C(COC(=O)NCc1ccc(Cn3c(=O)sn(CCCC)c3=O)cc1)=C\CC[C@@]1(C)O[C@@H]21 | 0.01 µM
* C=C1C(=O)O[C@H]2[C@H]1CC/C(COC(=O)NCc1ccc(Cn3c(=O)sn(CCCC#N)c3=O)cc1)=C\CC[C@@]1(C)O[C@@H]21 | 0.75 µM
* C=C1C(=O)O[C@H]2[C@H]1CC/C(COC(=O)NCc1ccc(Cn3c(=O)sn(-c4ccc(OC)cc4)c3=O)cc1)=C\CC[C@@]1(C)O[C@@H]21 | 1.74 µM
* C=C1C(=O)O[C@H]2[C@H]1CC/C(COC(=O)NCc1ccc(Cn3c(=O)sn(-c4ccc(C#N)cc4)c3=O)cc1)=C\CC[C@@]1(C)O[C@@H]21 | 0.23 µM
* C=C1C(=O)O[C@H]2[C@H]1CC/C(COC(=O)NCc1ccc(Cn3c(=O)sn(-c4ccccc4)c3=O)cc1)=C\CC[C@@]1(C)O[C@@H]21 | 1.26 µM
